Attribution: ChEMBL document CHEMBL1148614

# Ki per entry for Corticotropin-releasing factor receptor 1 (Rattus norvegicus)
Reported metric: Ki (nM)

These solved cases illustrate the format of a correct answer.
| Smi | System tested | Ki (nM) |
| --- | --- | --- |
| Cc1cc(C)c(Nc2nc(C)ccc2S(=O)(=O)c2ccc(OCc3ccccn3)cc2)c(C)c1 | Corticotropin-releasing factor receptor 1 (Rattus norvegicus) | 250 |
| Cc1cc(C)c(Nc2nc(C)ccc2S(=O)(=O)c2ccc(OCc3ccc(C#N)cc3)cc2)c(C)c1 | Corticotropin-releasing factor receptor 1 (Rattus norvegicus) | 157 |
| Cc1ccc(S(=O)(=O)c2ccc(C)nc2Nc2c(C)cc(C)cc2C)cc1 | Corticotropin-releasing factor receptor 1 (Rattus norvegicus) | 145 |
| CCc1ccc(S(=O)(=O)c2ccc(C)nc2Nc2c(C)cc(C)cc2C)cc1 | Corticotropin-releasing factor receptor 1 (Rattus norvegicus) | 52 |
| Cc1cc(C)c(Nc2nc(C)ccc2S(=O)(=O)c2ccc(OCc3cccc(C#N)c3)cc2)c(C)c1 | Corticotropin-releasing factor receptor 1 (Rattus norvegicus) | 75 |

1: COc1cccc(COc2ccc(S(=O)(=O)c3ccc(C)nc3Nc3c(C)cc(C)cc3C)cc2)c1
2: C=CCOc1ccc(S(=O)(=O)c2ccc(C)nc2Nc2c(C)cc(C)cc2C)cc1
3: Cc1cc(C)c(Nc2nc(C)ccc2S(=O)(=O)c2ccc(OCCCCC#N)cc2)c(C)c1
4: Cc1cc(C)c(Nc2nc(C)ccc2S(=O)(=O)c2ccc(OCc3ccccc3)cc2)c(C)c1
Form: Sort by [Ki] Order [ ascending ] Respond with the label ranking, as requested.
4, 1, 2, 3

###

# Assay summary: AUC in Sprague-Dawley rat at 2.0 mg/kg, po
# Format: ADME, organism-based
# Set-up: dose 2 mg/kg, route oral
# Conditions used: plasma
Reported metric: AUC (µM·h)

| Smi | AUC, µM·h |
| --- | --- |
| Cc1cc(C)c(Nc2nc(C)ccc2S(=O)(=O)c2ccc(OCc3ccccc3)cc2)c(C)c1 | 0.167 |

A: COc1ccccc1COc1ccc(S(=O)(=O)c2ccc(C)nc2Nc2c(C)cc(C)cc2C)cc1
B: CCc1ccc(S(=O)(=O)c2ccc(C)nc2Nc2c(C)cc(C)cc2C)cc1
Out of A and B , name the one with the higher AUC. Please respond with the label that marks your chosen entry.
B
(B: 0.347 µM·h, A: 0.176 µM·h)

###

# Assay summary: Cmax in Sprague-Dawley rat at 2.0 mg/kg, po
# Type: ADME, organism-based
# Parameters: dose 2 mg/kg, route oral
# Conditions used: in vivo
Reported metric: Cmax (nM)

| Smi | Cmax (nM) |
| --- | --- |
| COc1ccccc1COc1ccc(S(=O)(=O)c2ccc(C)nc2Nc2c(C)cc(C)cc2C)cc1 | 48 |

P: CCc1ccc(S(=O)(=O)c2ccc(C)nc2Nc2c(C)cc(C)cc2C)cc1
Q: Cc1cc(C)c(Nc2nc(C)ccc2S(=O)(=O)c2ccc(OCc3ccccc3)cc2)c(C)c1
Compare Cmax: is it lower for P or for Q ? Answer by quoting the chosen item's label.
Q

###

# Assay summary: Clearance in Sprague-Dawley rat at 0.5 mg/kg, iv
# Assay type: ADME, organism-based
# Set-up: dose 0.5 mg/kg, route intravenous
# Conditions used: in vivo
Reported metric: clearance (mL/min/kg)

1: CCc1ccc(S(=O)(=O)c2ccc(C)nc2Nc2c(C)cc(C)cc2C)cc1
2: COc1ccccc1COc1ccc(S(=O)(=O)c2ccc(C)nc2Nc2c(C)cc(C)cc2C)cc1
Recorded clearance values differ for 1 and 2 ; which one is higher? Reply briefly: the label of your chosen item.
1

###

# Assay summary: Bioavailability in Sprague-Dawley rat at 2.0 mg/kg, po
# Assay type: ADME, organism-based
# Conditions used: in vivo
Reported metric: bioavailability (%)

| Smi | Output unit | Test result |
| --- | --- | --- |
| Cc1cc(C)c(Nc2nc(C)ccc2S(=O)(=O)c2ccc(OCc3ccccc3)cc2)c(C)c1 | % | 18 |

I: COc1ccccc1COc1ccc(S(=O)(=O)c2ccc(C)nc2Nc2c(C)cc(C)cc2C)cc1
II: CCc1ccc(S(=O)(=O)c2ccc(C)nc2Nc2c(C)cc(C)cc2C)cc1
For the pair I and II , which member has the lower bioavailability number? Respond using the label that marks the chosen record.
I
